Value source: paper PMC5500810

biological target: EphA4 ligand-binding domain (human, amino acids 22-203) (human, UniProt P54764 22-203, biotin on primary amines (EZ link NHS biotin) in the AlphaScreen assays only); test: SPR; kd2
Sequence (P54764 22-203): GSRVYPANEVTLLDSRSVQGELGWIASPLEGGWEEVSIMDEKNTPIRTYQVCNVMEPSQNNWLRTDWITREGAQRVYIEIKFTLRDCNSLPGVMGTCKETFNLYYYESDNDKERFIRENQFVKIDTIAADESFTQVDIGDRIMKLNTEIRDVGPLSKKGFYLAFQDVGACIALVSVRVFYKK
Measure: koff (s⁻¹)
Answer format: numeric, s⁻¹ implied, no suffix.

Binder	koff (s⁻¹)
Nb 53 (VHH, biotin on primary amines (EZ link NHS biotin) in the Eph receptor selectivity AlphaScreen only) VHH: QVQLQESGGGVVQAGGSLRLSCAASGRAFSSYAMGWFRQAPGTKREMIAAVTRAGTTNYANPVKGRFTISRDDAKNMVYLQMNNLKPEDSAVYYCNAISPLWDEYDFWGPGTQVTVSS	0.00213

From here, focus on the item given below.
Exam item: koff for Nb 60 (VHH, biotin on primary amines (EZ link NHS biotin) in the Eph receptor selectivity AlphaScreen only) VHH: QVQLQESGGGLVQPGGSLRLSCAASGFTFSRYWIYWVRQAPGKQRELVAAITRNGVTNYADSVKGRFTISTDDNKNTVYLQMNSLKSEDTAVYYCNAWGFLLGDIEDYWGQGTQVTVSS ?
Marked response: 0.00018
